- system.tested: GCN5L2 (Homo sapiens, UniProt Q92830)
- Construct: made in house
- Sequence (Q92830 728-832 limits assumed): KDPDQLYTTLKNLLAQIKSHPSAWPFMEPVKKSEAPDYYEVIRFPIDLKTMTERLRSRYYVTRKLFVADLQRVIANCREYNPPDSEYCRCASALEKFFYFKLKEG
- assay.overview: Differential scanning fluorimetry (DSF), GCN5 (GCN5L2) Brd
- Assay type: binding
- study.conditions: compound 10 μM
Give GCN5L2 ΔTm (°C) (DSF) for every item shown.
Answers are plain numbers, in °C.

Previously resolved entries follow.
COc1cccc(N2CC(Nc3nn4c(C)nnc4c4ccccc34)CC2=O)c1 (stereo not drawn) [Compound 57] ... 0.1
Cc1nnc2c3ccccc3c(N3CCC(N(C)C)C3)nn12 (stereo not drawn) [Compound 68] ... 0.1

Turning now to a further record.
Request: I'd like to know its GCN5L2 ΔTm (°C) (DSF). The compound in question is Cc1nnc2c3ccccc3c(N3CCN4CCCCC4C3)nn12 (stereo not drawn) [Compound 73]
Result: 0.2
